Reported % reduction in necrotic spots compared to control values for the following compounds.
- System: powdery mildew fungus
- Assay type: in vivo, tomato
- measurement context: 80 mg/L, watered twice; 2 weeks after infection
observable: % reduction in necrotic spots compared to control

- compound: "C[N+](C)(C)CCO.O=C([O-])c1cc(I)ccc1O [choline 5-iodosalicylate]"
  result: "65%"
- compound: "C[N+](C)(C)CCO.O=C([O-])c1cc(F)ccc1O [choline 5-fluorosalicylate]"
  result: "54%"
- compound: "CC(=O)Oc1c(Cl)cccc1C(=O)[O-].C[N+](C)(C)CCO [choline 2-acetoxy-3-chlorobenzoate]"
  result: "45%"
- compound: "C[N+](C)(C)CCO.O=C([O-])c1cccc(F)c1O [choline 3-fluorosalicylate]"
  result: "52%"
- compound: "CC(=O)Oc1ccccc1C(=O)[O-].C[N+](C)(C)CCO [choline 2-acetoxybenzoate]"
  result: "52%"
- compound: "CCOc1ccccc1C(=O)[O-].C[N+](C)(C)CCO [choline 2-ethoxybenzoate]"
  result: "43%"
- compound: "COc1c(Cl)cccc1C(=O)[O-].C[N+](C)(C)CCO [choline 2-methoxy-3-chlorobenzoate]"
  result: "49%"
- compound: "O=C([O-])c1cccc(Cl)c1O.[Na+] [sodium 3-chlorosalicylate]"
  result: "88%"

* * *

Reported % reduction in necrotic spots compared to control values for the following compounds.
- Test system: Tobacco Mosaic Virus (TMV)
- measurement protocol: Protection of tobacco against TMV infection by spraying twice (Example 25)
- Type: in vivo, Nicotiana tabacum cv. Xanthi
- measurement context: 80 mg/L; sprayed twice; 7 days after infection
observable: % reduction in necrotic spots compared to control (%)

- compound: "C[N+](C)(C)CCO.O=C([O-])c1cccc(Cl)c1O [choline 3-chlorosalicylate]"
  system name: "Tobacco Mosaic Virus (TMV)"
  unit name: "%"
  result number: 85
- compound: "O=C([O-])c1cccc(Cl)c1O.[K+] [potassium 3-chlorosalicylate]"
  system name: "Tobacco Mosaic Virus (TMV)"
  unit name: "%"
  result number: 15
- compound: "C[N+](C)(C)CCO.O=C([O-])c1cc(Cl)ccc1O [choline 5-chlorosalicylate]"
  system name: "Tobacco Mosaic Virus (TMV)"
  unit name: "%"
  result number: 74
- compound: "O=C([O-])c1cccc(Cl)c1O.[Na+] [sodium 3-chlorosalicylate]"
  system name: "Tobacco Mosaic Virus (TMV)"
  unit name: "%"
  result number: 55

Data origin, for the record: patent US20260041093A1
